B1: ZNF207 (parent)
chain: FQPQPVQPQQGYIPPMAQPGLPPV

Variants of: B1
test name: protein stability index of a GFP-peptide fusion (GPS, HEK-293T) (PSI 1-6); higher = more stable;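 note: lentivirally expressed fusions sorted by FACS into six bins by GFP to DsRed ratio, PSI derived from sequencing read proportions per bin multiplied by bin number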
condition summary: c terminus: a fixed tail appended
experimental readout: protein stability index
// return a plain number; no unit text

As a guide, the following entries are already answered.
1. Q4E = 3.58
2. Y12D = 3.73

Reported protein stability index for P14C was 2.61

Reported protein stability index for G11N was 2.93

Reported protein stability index for M16W was 2.06

Where do the numbers come from? From the supplement of paper PMC10567573.
